target.under.test: hCB1Rs (Homo sapiens)
Format: cell-based
condition.parameters: read-out: β-Arrestin 2 Assay EC50; CHO-β2-hCB1 cells; 90 min incubation
Below, each entry is listed with its recorded EC50.
Could you give me the number in nM? Just the number is fine.

1. CCCCCn1cc(C(=O)c2cccc3ccccc23)c2ccccc21 [JWH-018, reference compound]: 78.1

Task: Recorded EC50 of O=C1/C(=C/c2cn(Cc3ccc(F)cc3)c3ccccc23)N2CCC1CC2 [PNR-4-20] , please.
Output: 5410

---

target.under.test: hCB1Rs (Homo sapiens, UniProt P21554)
Sequence (P21554 whole entry): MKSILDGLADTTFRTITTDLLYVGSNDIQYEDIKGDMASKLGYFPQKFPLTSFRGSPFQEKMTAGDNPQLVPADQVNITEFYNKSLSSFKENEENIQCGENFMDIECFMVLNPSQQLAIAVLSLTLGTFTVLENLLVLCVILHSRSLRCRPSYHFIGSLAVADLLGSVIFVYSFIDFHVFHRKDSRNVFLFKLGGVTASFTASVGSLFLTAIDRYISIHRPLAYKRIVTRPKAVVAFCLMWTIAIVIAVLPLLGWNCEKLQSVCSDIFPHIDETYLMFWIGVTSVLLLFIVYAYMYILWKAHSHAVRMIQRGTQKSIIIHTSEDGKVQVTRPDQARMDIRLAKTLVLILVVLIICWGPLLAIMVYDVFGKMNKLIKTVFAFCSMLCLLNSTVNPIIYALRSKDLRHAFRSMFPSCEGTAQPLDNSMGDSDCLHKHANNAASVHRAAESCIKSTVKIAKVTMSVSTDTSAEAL
test: [^35S]GTPγS binding
Format: biochemical
condition.parameters: read-out: ^35S-GTPγS Binding Assay EC50; CHO-hCB1-Rx membranes
endpoint.label: EC50 (nM)
Numbers only here, please. The scale is nM.

Task: Write down the reported EC50 of O=C1/C(=C/c2cn(Cc3ccc(F)cc3)c3ccccc23)N2CCC1CC2 [PNR-4-20] , test system: hCB1Rs (Homo sapiens, UniProt P21554).
Output: 130

---

target.under.test: UniProt P21554
Assay type: binding
condition.parameters: read-out: ^3H-CP-55,940 Binding Ki; CHO-β2-hCB1 membranes; 0.2 nM [^3H]-CP55,940
endpoint.label: Ki (nM)
Give a bare numeral; the unit nM is implied.

Task: Which Ki reading was recorded for the molecule O=C1/C(=C/c2cn(Cc3ccc(F)cc3)c3ccccc23)N2CCC1CC2 ?
Output: 159

---

Reported pIC50 is given for each of the following compounds.
target.under.test: hCB1Rs (Homo sapiens)
test: Forskolin-stimulated intracellular cAMP levels
condition.parameters: read-out: cAMP Assay IC50; intact CHO-β2-hCB1 cells; 10 µM forskolin
pIC50 here is simply -log10 of the concentration when that concentration is written in mol/L.

1. CCCCCn1cc(C(=O)c2cccc3ccccc23)c2ccccc21 [JWH-018, reference compound]: 8.76

Please look at the following compound next.
Task: Fill in: pIC50 of O=C1/C(=C/c2cn(Cc3ccc(F)cc3)c3ccccc23)N2CCC1CC2 [PNR-4-20] is ___
Output: 6.74
